Molecular target: T1, factor H binding protein (fHbp) variant 2.16 (Neisseria meningitidis 961-5945, UniProt Q6VS19, strain)
T1 construct: also called fHbp v2.16; fHbp v2; source: E. coli BL21(DE3), purified (Ni-NTA; SEC when necessary)
Experiment: SPR
Details: both partners purified
Measurement label: koff

Binder	Result
human anti-fHbp mAb 4B3 (antibody, V domains shown, source: Expi293, transient transfection, purified (protein G Sepharose)) VH: QVQLVQSGGGLVKPGGSLRLSCAASGFPFSSYYMSWIRQAPGKGLEWVSDINNSGNVKEYADFVKGRLTISRDNVKNSMYLHMNSLRVEDTAVYYCARNRGRFDVWGQGTLVTVSA VL: EIVMTQSPGTLSLSPGETATLSCRASQMISSPFLAWYQQRRGQAPRLLIYGASTRATDTPDRFRGSGSGTDFILTISRLEPEDFAVYYCQYYDDSPFTFGQGTKLEIK	7.98e-05 s⁻¹
human anti-fHbp mAb 4F9 (antibody, V domains shown, source: Expi293, transient transfection, purified (protein G Sepharose)) VH: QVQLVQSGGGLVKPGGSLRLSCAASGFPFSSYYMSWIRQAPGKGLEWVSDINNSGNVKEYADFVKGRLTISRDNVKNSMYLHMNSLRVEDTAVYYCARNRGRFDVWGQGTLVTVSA VL: EIVMTQSPGTLSLSPGETATLSCRASQMISSPFLAWYQQRRGQAPRLLIYGASTRATDTPDRFRGSGSGTDFILTISRLEPEDFAVYYCQHYDDSPFTFGQGTKLEIK	3.3e-05 s⁻¹
